biological target: DLG2_3, Q15700; experiment: holdup assay; set-up: key: below the threshold = too weak to quantify, mostly under pKd 3.1 to 4; conditions: plain residues with an end cap or a label only (N-terminal biotin on a linker: ado-ado)

| BINDER | pKd |
| --- | --- |
| GSGAVEMESV [AQP6, Q13520] | below the threshold |
| QSPANIYYKV [EFNB1, P52799] | below the threshold |
| LSEFKAMDSI [CTNNA1, P35221] | below the threshold |
| SNAGNTATKA [NOSTRIN, Q8IVI9] | 3.6 |
